Kindly state DC50 for each of the entries shown.
# tested_on: HiBit-BRG1 (Homo sapiens)
# Construct: expressed in transfected cells
# assay_notes: HiBit-BRG1 cell-based degradation assay (Nano-Glo HiBiT Lytic Detection)
# measurement_parameters: HeLa cells expressing HiBit-BRG1 and LgBit, 24 h; read-out: BRG1 HiBit Degradation IC50

Study these solved cases before continuing.
[
  {
    "compound": "Nc1nnc(-c2ccccc2O)cc1OCCc1ccc(CNCCCCCNc2ccc3c(c2)C(=O)N(C2CCC(=O)NC2=O)C3=O)cc1 (centres unmarked) [Compound 117]",
    "tested_on": "HiBit-BRG1 (Homo sapiens)",
    "DC50": "> 1000 nM"
  },
  {
    "compound": "Cc1ncsc1-c1ccc([C@H](C)NC(=O)[C@@H]2C[C@@H](O)CN2C(=O)[C@@H](c2cc(OCCN3CCC4(CC3)CC(C(=O)NCc3ccc(CCOc5cc(-c6ccccc6O)nnc5N)cc3)C4)no2)C(C)C)cc1 [Compound 195]",
    "tested_on": "HiBit-BRG1 (Homo sapiens)",
    "DC50": "> 100 nM"
  },
  {
    "compound": "Nc1nnc(-c2ccccc2O)cc1OCCc1ccc(CNC(=O)CCOCCOCCNc2ccc3c(c2)C(=O)N(C2CCC(=O)NC2=O)C3=O)cc1 (centres unmarked) [Compound 70]",
    "tested_on": "HiBit-BRG1 (Homo sapiens)",
    "DC50": "> 1000 nM"
  },
  {
    "compound": "Cc1ncsc1-c1ccc([C@H](C)NC(=O)[C@@H]2C[C@@H](O)CN2C(=O)[C@@H](c2cc(OCCNCCCCCCCCCCC(=O)NCc3ccc(CCOc4cc(-c5ccccc5O)nnc4N)cc3)no2)C(C)C)cc1 [Compound 212]",
    "tested_on": "HiBit-BRG1 (Homo sapiens)",
    "DC50": "> 1000 nM"
  }
]

What does the record list as DC50 for Nc1nnc(-c2ccccc2O)cc1OCCc1ccc(C(=O)NCCCCCNc2ccc3c(c2)C(=O)N(C2CCC(=O)NC2=O)C3=O)cc1 (centres unmarked) [Compound 51] ?
> 1000 nM

###

# tested_on: HiBiT-BRM (Homo sapiens, UniProt P51531)
# Construct: expressed in transfected cells
# Sequence (P51531 whole entry): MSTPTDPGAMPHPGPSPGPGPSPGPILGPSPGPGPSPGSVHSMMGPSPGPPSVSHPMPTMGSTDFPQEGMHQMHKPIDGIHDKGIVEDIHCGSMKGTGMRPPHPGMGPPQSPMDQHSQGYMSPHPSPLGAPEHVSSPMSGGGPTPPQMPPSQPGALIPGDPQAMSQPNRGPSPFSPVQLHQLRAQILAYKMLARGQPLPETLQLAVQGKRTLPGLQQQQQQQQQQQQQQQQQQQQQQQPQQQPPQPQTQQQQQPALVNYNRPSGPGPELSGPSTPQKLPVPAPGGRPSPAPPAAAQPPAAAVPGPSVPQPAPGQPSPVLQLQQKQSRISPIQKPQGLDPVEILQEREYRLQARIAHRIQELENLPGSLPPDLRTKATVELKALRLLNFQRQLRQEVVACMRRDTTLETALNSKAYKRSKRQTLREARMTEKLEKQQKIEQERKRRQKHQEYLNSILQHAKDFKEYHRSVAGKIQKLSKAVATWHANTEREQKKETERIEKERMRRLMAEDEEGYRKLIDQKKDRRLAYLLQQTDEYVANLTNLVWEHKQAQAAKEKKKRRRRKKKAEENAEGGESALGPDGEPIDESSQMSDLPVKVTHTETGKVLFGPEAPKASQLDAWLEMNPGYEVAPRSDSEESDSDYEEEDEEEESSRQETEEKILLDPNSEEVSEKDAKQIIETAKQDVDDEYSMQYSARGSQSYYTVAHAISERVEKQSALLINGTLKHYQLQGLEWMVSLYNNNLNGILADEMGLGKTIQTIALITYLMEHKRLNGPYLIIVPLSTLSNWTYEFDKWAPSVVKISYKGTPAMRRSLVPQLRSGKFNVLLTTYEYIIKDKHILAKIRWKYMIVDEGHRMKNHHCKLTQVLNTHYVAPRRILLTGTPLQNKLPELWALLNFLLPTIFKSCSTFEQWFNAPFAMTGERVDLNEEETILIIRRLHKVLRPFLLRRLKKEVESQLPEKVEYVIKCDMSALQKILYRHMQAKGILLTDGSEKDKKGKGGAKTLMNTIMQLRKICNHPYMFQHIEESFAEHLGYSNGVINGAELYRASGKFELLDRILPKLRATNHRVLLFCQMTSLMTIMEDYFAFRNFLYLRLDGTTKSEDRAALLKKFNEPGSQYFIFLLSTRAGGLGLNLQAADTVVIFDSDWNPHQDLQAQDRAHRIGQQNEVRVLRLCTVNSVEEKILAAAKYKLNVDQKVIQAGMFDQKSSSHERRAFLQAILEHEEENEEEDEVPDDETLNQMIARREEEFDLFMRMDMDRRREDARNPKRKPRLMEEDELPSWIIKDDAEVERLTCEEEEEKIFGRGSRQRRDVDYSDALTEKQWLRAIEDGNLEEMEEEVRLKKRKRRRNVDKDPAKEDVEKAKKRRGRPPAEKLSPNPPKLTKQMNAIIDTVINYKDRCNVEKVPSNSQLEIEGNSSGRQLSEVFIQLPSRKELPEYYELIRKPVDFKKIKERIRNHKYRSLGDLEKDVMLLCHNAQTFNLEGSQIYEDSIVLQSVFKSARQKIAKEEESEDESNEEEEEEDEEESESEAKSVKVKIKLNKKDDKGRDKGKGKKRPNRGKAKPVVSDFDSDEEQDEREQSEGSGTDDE
# assay_notes: HiBiT-BRM cell-based degradation assay (Nano-Glo HiBiT Lytic Detection)
# measurement_parameters: HeLa cells expressing HiBiT-BRM, 24 h; read-out: BRM HiBit Degradation IC50
Kindly state DC50 for each of the entries shown.

Study these solved cases before continuing.
[
  {
    "compound": "Nc1nnc(-c2ccccc2O)cc1N1CCN(CCNC(=O)CCOCCOCCNc2ccc3c(c2)C(=O)N(C2CCC(=O)NC2=O)C3=O)CC1 (stereo not drawn)",
    "assay_result": "> 1000 nM"
  },
  {
    "compound": "Nc1nnc(-c2ccccc2O)cc1OCCc1ccc(CNCCCOc2cccc3c2C(=O)N(C2CCC(=O)NC2=O)C3=O)cc1 (stereo not drawn)",
    "assay_result": "> 100 nM"
  }
]

Here is another compound to look at.
What does the record list as DC50 for Cc1nc2cccc(NCCCCCCNC(=O)c3ccc(CCOc4cc(-c5ccccc5O)nnc4N)cc3)c2c(=O)n1C1CCC(=O)NC1=O (stereo not drawn) ?
> 1000 nM

###

# tested_on: HiBit-BRG1 (Homo sapiens, UniProt P51532)
# Construct: expressed in transfected cells
# Sequence (P51532 whole entry): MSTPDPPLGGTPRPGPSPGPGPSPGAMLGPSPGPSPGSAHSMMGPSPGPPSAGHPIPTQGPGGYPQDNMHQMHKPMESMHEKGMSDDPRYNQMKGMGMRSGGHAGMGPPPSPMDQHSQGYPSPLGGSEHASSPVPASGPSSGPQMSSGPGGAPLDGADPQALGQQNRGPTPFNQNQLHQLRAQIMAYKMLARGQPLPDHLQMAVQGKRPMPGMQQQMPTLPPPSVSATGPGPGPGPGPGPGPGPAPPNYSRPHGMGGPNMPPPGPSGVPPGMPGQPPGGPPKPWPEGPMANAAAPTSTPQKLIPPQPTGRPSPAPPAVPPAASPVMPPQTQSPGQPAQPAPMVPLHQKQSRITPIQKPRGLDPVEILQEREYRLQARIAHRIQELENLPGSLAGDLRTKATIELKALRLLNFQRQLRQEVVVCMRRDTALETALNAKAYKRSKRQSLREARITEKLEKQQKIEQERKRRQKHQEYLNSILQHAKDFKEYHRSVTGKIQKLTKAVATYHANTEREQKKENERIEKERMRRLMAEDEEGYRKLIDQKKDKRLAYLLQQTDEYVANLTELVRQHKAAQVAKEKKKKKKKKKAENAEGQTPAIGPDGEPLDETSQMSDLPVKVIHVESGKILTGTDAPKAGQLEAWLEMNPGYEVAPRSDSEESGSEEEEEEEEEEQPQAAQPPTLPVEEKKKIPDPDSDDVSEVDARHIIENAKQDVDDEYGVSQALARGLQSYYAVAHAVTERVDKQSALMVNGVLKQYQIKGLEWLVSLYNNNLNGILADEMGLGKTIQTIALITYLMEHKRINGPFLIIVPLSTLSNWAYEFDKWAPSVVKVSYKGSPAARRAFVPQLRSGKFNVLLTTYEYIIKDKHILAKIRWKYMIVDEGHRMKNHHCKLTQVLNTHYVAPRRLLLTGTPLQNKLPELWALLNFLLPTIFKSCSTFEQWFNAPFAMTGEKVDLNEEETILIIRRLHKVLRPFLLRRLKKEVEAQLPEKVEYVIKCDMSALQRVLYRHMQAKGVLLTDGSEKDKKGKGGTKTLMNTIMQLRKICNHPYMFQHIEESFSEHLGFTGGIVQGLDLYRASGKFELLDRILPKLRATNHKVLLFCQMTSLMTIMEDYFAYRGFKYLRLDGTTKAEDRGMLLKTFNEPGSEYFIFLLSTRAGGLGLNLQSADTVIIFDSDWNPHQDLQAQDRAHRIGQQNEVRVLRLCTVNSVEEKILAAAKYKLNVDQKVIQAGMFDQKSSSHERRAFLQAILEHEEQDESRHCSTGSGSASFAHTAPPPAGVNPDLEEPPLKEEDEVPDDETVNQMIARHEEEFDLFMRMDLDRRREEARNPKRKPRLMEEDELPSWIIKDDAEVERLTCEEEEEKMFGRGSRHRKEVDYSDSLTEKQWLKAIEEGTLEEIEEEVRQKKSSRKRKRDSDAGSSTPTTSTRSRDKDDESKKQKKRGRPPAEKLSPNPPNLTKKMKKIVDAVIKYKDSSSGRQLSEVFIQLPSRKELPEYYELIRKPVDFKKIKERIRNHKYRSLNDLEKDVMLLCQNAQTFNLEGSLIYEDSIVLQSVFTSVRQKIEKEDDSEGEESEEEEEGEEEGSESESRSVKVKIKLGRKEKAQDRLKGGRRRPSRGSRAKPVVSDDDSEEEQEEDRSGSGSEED
# assay_notes: HiBit-BRG1 cell-based degradation assay (Nano-Glo HiBiT Lytic Detection)
# measurement_parameters: HeLa cells expressing HiBit-BRG1 and LgBit, 24 h; read-out: BRG1 HiBit Degradation Maximum (%)
assay_readout: Dmax

Each molecule below has a reported value. Please supply its Dmax.
1. Cc1ncsc1-c1ccc(CNC(=O)[C@@H]2C[C@@H](O)CN2C(=O)[C@@H](NC(=O)CCCCCCCCCC(=O)NCc2ccc(CCOc3cc(-c4ccccc4O)nnc3N)cc2)C(C)(C)C)cc1 [Compound 28]
2. Cc1ncsc1-c1ccc(CNC(=O)[C@@H]2C[C@@H](O)CN2C(=O)[C@@H](NC(=O)CCCCCCCCCNCc2ccc(CCN(C)c3cc(-c4ccccc4O)nnc3N)cc2)C(C)(C)C)cc1 [Compound 131]

< 50%
> 50%

Each molecule below has a reported value. Please supply its Dmax.
1. Cc1ncsc1-c1ccc([C@H](C)NC(=O)[C@@H]2C[C@@H](O)CN2C(=O)[C@@H](c2cc(OCCN3CC(C4CCN(C(=O)c5ccc(CCOc6cc(-c7ccccc7O)nnc6N)cc5)CC4)C3)no2)C(C)C)cc1 [Compound 211]
2. Cc1ncsc1-c1ccc(CNC(=O)[C@@H]2C[C@@H](O)CN2C(=O)[C@@H](NC(=O)CCN2CCN(CCOc3cc(N4[C@@H]5CC[C@H]4CN(c4cc(-c6ccccc6O)nnc4N)C5)ccn3)CC2)C(C)(C)C)cc1 [Compound 232]
3. Cc1ncsc1-c1ccc([C@H](C)NC(=O)[C@@H]2C[C@@H](O)CN2C(=O)[C@@H](c2cc(OCCNCCCCCCCCCCC(=O)NCc3ccc(CCOc4cc(-c5ccccc5O)nnc4N)cc3)no2)C(C)C)cc1 [Compound 212]

> 50%
< 50%
< 50%

###

# tested_on: HiBit-BRG1 (Homo sapiens)
# Construct: expressed in transfected cells
# assay_notes: HiBit-BRG1 cell-based degradation assay (Nano-Glo HiBiT Lytic Detection)
# measurement_parameters: HeLa cells expressing HiBit-BRG1 and LgBit, 24 h; read-out: BRG1 HiBit Degradation IC50
assay_readout: DC50

Study these solved cases before continuing.
[
  {
    "compound": "Cc1ncsc1-c1ccc(CNC(=O)[C@@H]2C[C@@H](O)CN2C(=O)[C@@H](NC(=O)CCN2CC(C(=O)NCc3ccc(CCOc4cc(-c5ccccc5O)nnc4N)cc3)C2)C(C)(C)C)cc1 [Compound 182]",
    "DC50": "> 1000 nM"
  },
  {
    "compound": "Cc1ncsc1-c1ccc(CNC(=O)[C@@H]2C[C@@H](O)CN2C(=O)[C@@H](NC(=O)CCCCC(=O)NCc2ccc(CCOc3cc(-c4ccccc4O)nnc3N)cc2)C(C)(C)C)cc1 [Compound 27]",
    "DC50": "> 1000 nM"
  },
  {
    "compound": "Nc1nnc(-c2ccccc2O)cc1OCCc1ccc(C(=O)NCCCCCC(=O)NCc2ccc(S(=O)(=O)Nc3cccc4c(Cl)c[nH]c34)cc2)cc1 [Compound 14]",
    "DC50": "> 1000 nM"
  },
  {
    "compound": "Cc1ncsc1-c1ccc([C@H](C)NC(=O)[C@@H]2C[C@@H](O)CN2C(=O)[C@@H](NC(=O)CCCCCCCCCNC(=O)c2ccc(CCOc3cc(-c4ccccc4O)nnc3N)cc2)C(C)(C)C)cc1 [Compound 171]",
    "DC50": "> 1000 nM"
  }
]

Each compound below has a reported value. Please supply its DC50.
1. Cc1ncsc1-c1ccc([C@H](C)NC(=O)[C@@H]2C[C@@H](O)CN2C(=O)[C@@H](NC(=O)CCNCCCCCCCCCCC(=O)NCc2ccc(CCOc3cc(-c4ccccc4O)nnc3N)cc2)C(C)(C)C)cc1 [Compound 256]
2. Nc1nnc(-c2ccccc2O)cc1OCCc1ccc(CNC(=O)CCOCCOCCNc2cccc3c2C(=O)N(C2CCC(=O)NC2=O)C3=O)cc1 (centres unmarked) [Compound 74]
3. Nc1nnc(-c2ccccc2O)cc1N1CCN(CC(=O)N2CC(COc3cccc4c3C(=O)N(C3CCC(=O)NC3=O)C4=O)C2)CC1 (centres unmarked) [Compound 76]

1. > 1000 nM
2. > 1000 nM
3. > 1000 nM

Each compound below has a reported value. Please supply its DC50.
1. Cc1ncsc1-c1ccc(CNC(=O)[C@@H]2C[C@@H](O)CN2C(=O)[C@@H](NC(=O)CCCCCCCCCCCCCCCC(=O)NCc2ccc(CCOc3cc(-c4ccccc4O)nnc3N)cc2)C(C)(C)C)cc1 [Compound 32]
2. Nc1nnc(-c2ccccc2O)cc1OCCc1ccc(C(=O)NCCCCCCCCNc2cccc3c2C(=O)N(C2CCC(=O)NC2=O)C3=O)cc1 (centres unmarked) [Compound 44]

["> 1000 nM", "> 1000 nM"]

Each compound below has a reported value. Please supply its DC50.
1. Cc1ncsc1-c1ccc([C@H](C)NC(=O)[C@@H]2C[C@@H](O)CN2C(=O)[C@@H](NC(=O)CN2CCC3(CCN(CCC(=O)NCc4ccc(CCOc5cc(-c6ccccc6O)nnc5N)cc4)CC3)CC2)C(C)(C)C)cc1 [Compound 267]
2. Nc1nnc(-c2ccccc2O)cc1N1CCN(CC(=O)NCCCCS(=O)(=O)CCCNc2cccc3c2C(=O)N(C2CCC(=O)NC2=O)C3=O)CC1 (centres unmarked) [Compound 80]

["> 1000 nM", "> 1000 nM"]

###

# tested_on: HiBit-BRG1 (Homo sapiens, UniProt P51532)
# Construct: expressed in transfected cells
# assay_notes: HiBit-BRG1 cell-based degradation assay (Nano-Glo HiBiT Lytic Detection)
# measurement_parameters: HeLa cells expressing HiBit-BRG1 and LgBit, 24 h; read-out: BRG1 HiBit Degradation Maximum (%)
Where a name gives a salt, the structure may show the parent alone.
assay_readout: Dmax

[
  {
    "compound": "Nc1nnc(-c2ccccc2O)cc1OCCc1ccc(C(=O)NCCCCCNc2cccc3c2C(=O)N(C2CCC(=O)NC2=O)C3=O)cc1 (stereo not shown)",
    "tested_on": "HiBit-BRG1 (Homo sapiens, UniProt P51532)",
    "Dmax": "< 50%"
  }
]

Each compound below has a reported value. Please supply its Dmax.
1. Cc1ncsc1-c1ccc([C@H](C)NC(=O)[C@@H]2C[C@@H](O)CN2C(=O)[C@@H](NC(=O)CN2CCC(OC3CCN(CCC(=O)NCc4ccc(CCOc5cc(-c6ccccc6O)nnc5N)cc4)CC3)CC2)C(C)(C)C)cc1
2. Nc1nnc(-c2ccccc2O)cc1OCCc1ccc(CNCCCCCNc2cccc3c2C(=O)N(C2CCC(=O)NC2=O)C3=O)cc1 (stereo not shown)

> 50%
> 50%

Each compound below has a reported value. Please supply its Dmax.
1. Nc1nnc(-c2ccccc2O)cc1N1CCN(CCNC(=O)CCCCCCCCCCNc2ccc3c(c2)C(=O)N(C2CCC(=O)NC2=O)C3=O)CC1 (stereo not shown)
2. Cc1ncsc1-c1ccc(CNC(=O)[C@@H]2C[C@@H](O)CN2C(=O)[C@@H](NC(=O)CCN2CC3(C2)CN(C(=O)c2ccc(CCOc4cc(-c5ccccc5O)nnc4N)cc2)C3)C(C)(C)C)cc1
3. CCN(CCc1ccc(C(=O)NCCCCCCCCCC(=O)N[C@H](C(=O)N2C[C@H](O)C[C@H]2C(=O)NCc2ccc(-c3scnc3C)cc2)C(C)(C)C)cc1)c1cc(-c2ccccc2O)nnc1N (racemic)
4. Cc1ncsc1-c1ccc([C@H](C)NC(=O)[C@@H]2C[C@@H](O)CN2C(=O)[C@@H](c2cc(OCCN3CC4(C3)CN(C(=O)c3ccc(CCOc5cc(-c6ccccc6O)nnc5N)cc3)C4)no2)C(C)C)cc1
5. Cc1ncsc1-c1ccc(CNC(=O)[C@@H]2C[C@@H](O)CN2C(=O)[C@@H](NC(=O)COCCOCCNC(=O)CN2CCN(c3cc(-c4ccccc4O)nnc3N)CC2)C(C)(C)C)cc1
6. Nc1nnc(-c2cc(F)cc(Cl)c2O)cc1OCCc1ccc(CNCCCCCOc2cccc3c2C(=O)N(C2CCC(=O)NC2=O)C3=O)cc1 (stereo not shown) [Compound 119, formic acid salt]

["< 50%", "< 50%", "< 50%", "> 75%", "< 50%", "> 50%"]

Record lookup: for HiBit-BRG1 (Homo sapiens, UniProt P51532), what Dmax belongs to `Cc1ncsc1-c1ccc([C@H](C)NC(=O)[C@@H]2C[C@@H](O)CN2C(=O)[C@@H](c2cc(OCCN3CCC(C(=O)NCc4ccc(CCOc5cc(-c6ccccc6O)nnc5N)cc4)CC3)no2)C(C)C)cc1` ?
> 75%

Source listed as patent US20230150974A1.
